test system: 885512-296-R-J2-PDC complex spheroid growth, % test/control; test: Anticancer human tumor 885512-296-R-J2-PDC patient-derived breast carcinoma cell line growth inhibition [AhR]; conditions: second compound 10 µM; first compound 0.316 µM; active = viability on the fitted dose curve at most 10% of control; inactive = the rest
Labels: active, inactive

| Compound | Assigned Class |
| --- | --- |
| CC1COCCN1c1cc(-c2ccnn2C)c2ccnc(-c3ccn[nH]3)c2n1 (stereo not drawn) + Cc1cncc(-c2nc(NCCc3c[nH]c4ccccc34)c3ncn(C(C)C)c3n2)c1 | active |
| Nc1ccn(C2OC(CO)C(O)C2(F)F)c(=O)n1 (stereo not drawn) + CC(CO)NC(=O)c1cc(-c2ccc(Cl)cc2)nn(-c2cnn(C)c2)c1=O | active |
| Nc1ncn(C2CC(O)C(CO)O2)c(=O)n1 (stereo not drawn) + Cc1ccccc1N=Nc1ccc(NC(=O)c2ccnn2C)c(C)c1 | inactive |
| O=C(c1cc(Cc2n[nH]c(=O)c3ccccc23)ccc1F)N1CCN(C(=O)C2CC2)CC1 + Cc1cncc(-c2nc(NCCc3c[nH]c4ccccc34)c3ncn(C(C)C)c3n2)c1 | inactive |
| COc1cc(C2c3cc4c(cc3C(OC3OC5COC(C)OC5C(O)C3O)C3COC(=O)C23)OCO4)cc(OC)c1O (stereo not drawn) + Cc1cncc(-c2nc(NCCc3c[nH]c4ccccc34)c3ncn(C(C)C)c3n2)c1 | inactive |
| COc1cc(Nc2ncc3c(n2)-c2ccc(Cl)cc2C(c2c(F)cccc2OC)=NC3)ccc1C(=O)O + CC(CO)NC(=O)c1cc(-c2ccc(Cl)cc2)nn(-c2cnn(C)c2)c1=O | inactive |
| COc1cc(C2c3cc4c(cc3C(OC3OC5COC(C)OC5C(O)C3O)C3COC(=O)C23)OCO4)cc(OC)c1O (stereo not drawn) + CC(CO)NC(=O)c1cc(-c2ccc(Cl)cc2)nn(-c2cnn(C)c2)c1=O | inactive |
| O=C(C=Cc1cccc(S(=O)(=O)Nc2ccccc2)c1)NO + CC(CO)NC(=O)c1cc(-c2ccc(Cl)cc2)nn(-c2cnn(C)c2)c1=O | inactive |
| NS(=O)(=O)OCC1CC(n2ccc3c(NC4CCc5ccccc54)ncnc32)CC1O (stereo not drawn) + Cc1cncc(-c2nc(NCCc3c[nH]c4ccccc34)c3ncn(C(C)C)c3n2)c1 | active |
| Nc1ccn(C2OC(CO)C(O)C2(F)F)c(=O)n1 (stereo not drawn) + Cc1ccccc1N=Nc1ccc(NC(=O)c2ccnn2C)c(C)c1 | active |
| Nc1ncn(C2CC(O)C(CO)O2)c(=O)n1 (stereo not drawn) + CC(CO)NC(=O)c1cc(-c2ccc(Cl)cc2)nn(-c2cnn(C)c2)c1=O | inactive |
| COc1cc(C2c3cc4c(cc3C(OC3OC5COC(C)OC5C(O)C3O)C3COC(=O)C23)OCO4)cc(OC)c1O (stereo not drawn) + Cc1ccccc1N=Nc1ccc(NC(=O)c2ccnn2C)c(C)c1 | inactive |
| CC1COCCN1c1cc(C2(S(C)(=N)=O)CC2)nc(-c2ccnc3[nH]ccc23)n1 (stereo not drawn) + Cc1ccccc1N=Nc1ccc(NC(=O)c2ccnn2C)c(C)c1 | inactive |

----------
system: 885512-296-R-J2-PDC complex spheroid growth, % test/control; assay: Anticancer human tumor 885512-296-R-J2-PDC cell line growth inhibition [AhR]; settings: second compound 3.16 µM; first compound 3.16 µM; active means viability on the fitted dose curve at most 10% of control; inactive means the rest;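 note: spheroids exposed to compounds for seven days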
Outcome codes: active, inactive

| Molecule | Assigned Class |
| --- | --- |
| Nc1ccn(C2OC(CO)C(O)C2(F)F)c(=O)n1 (stereo not given) + Cc1cncc(-c2nc(NCCc3c[nH]c4ccccc34)c3ncn(C(C)C)c3n2)c1 | active |
| O=C(c1cc(Cc2n[nH]c(=O)c3ccccc23)ccc1F)N1CCN(C(=O)C2CC2)CC1 + Cc1ccccc1N=Nc1ccc(NC(=O)c2ccnn2C)c(C)c1 | inactive |
| COc1cc(Nc2ncc3c(n2)-c2ccc(Cl)cc2C(c2c(F)cccc2OC)=NC3)ccc1C(=O)O + Cc1ccccc1N=Nc1ccc(NC(=O)c2ccnn2C)c(C)c1 | inactive |
| O=C(c1cc(Cc2n[nH]c(=O)c3ccccc23)ccc1F)N1CCN(C(=O)C2CC2)CC1 + Cc1cncc(-c2nc(NCCc3c[nH]c4ccccc34)c3ncn(C(C)C)c3n2)c1 | inactive |
| CC1(C)CCC(CN2CCN(c3ccc(C(=O)NS(=O)(=O)c4ccc(NCC5CCOCC5)c([N+](=O)[O-])c4)c(Oc4cnc5[nH]ccc5c4)c3)CC2)=C(c2ccc(Cl)cc2)C1 + Cc1cncc(-c2nc(NCCc3c[nH]c4ccccc34)c3ncn(C(C)C)c3n2)c1 | inactive |
